test_target: JAK1 (recombinant purified GST-tagged catalytic domain) (Homo sapiens (Human));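 further: biochemical assay with HTRF read-out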
Sequence (P23458 875-1153): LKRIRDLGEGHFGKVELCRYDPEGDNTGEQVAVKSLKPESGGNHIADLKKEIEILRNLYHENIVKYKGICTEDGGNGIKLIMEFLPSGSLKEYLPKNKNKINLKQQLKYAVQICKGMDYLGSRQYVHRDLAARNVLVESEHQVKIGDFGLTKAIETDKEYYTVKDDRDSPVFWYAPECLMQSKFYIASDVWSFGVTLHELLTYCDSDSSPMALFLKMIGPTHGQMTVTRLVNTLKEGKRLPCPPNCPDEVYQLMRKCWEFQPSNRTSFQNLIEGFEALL
method_summary: biochemical
pIC50: −log10 of the molar value.
measured_parameter: pIC50

Examples from the recorded data:
- compound: "COC(=O)c1cncc(Nc2nn([C@H]3CCCC[C@@H]3C#N)cc2C(N)=O)c1 (single isomer, unassigned) [Example 17-72]"
  test_target: "JAK1 (recombinant purified GST-tagged catalytic domain) (Homo sapiens (Human))"
  pIC50: 7.92
- compound: "N#C[C@@H]1CCCC[C@H]1n1cc(C(N)=O)c(Nc2ccc(C(F)F)nc2)n1 (single isomer, unassigned) [Example 17-55]"
  test_target: "JAK1 (recombinant purified GST-tagged catalytic domain) (Homo sapiens (Human))"
  pIC50: 7.39
- compound: "N#C[C@H]1CCCC[C@@H]1n1cc(C(N)=O)c(Nc2cnc3c(c2)CNC3=O)n1 (single isomer, unassigned) [Example 17-76]"
  test_target: "JAK1 (recombinant purified GST-tagged catalytic domain) (Homo sapiens (Human))"
  pIC50: 9.26

A: C[C@](O)(c1ccc(Nc2nn([C@H]3CCCC[C@@H]3C#N)cc2C(N)=O)cn1)C(F)F (single isomer, unassigned) [Example 17-39]
B: N#C[C@@H]1C[C@H](C(=O)N2CC(F)(F)C2)CC[C@H]1n1cc(C(N)=O)c(Nc2ccc(Cl)cc2)n1 (single isomer, unassigned) [Example 35-15]
Ask | From the recorded data, which exceeds the other in pIC50: A or B ? Give the label under which the chosen entry appears.
Reply | A
(A: 9.00, B: 8.52)

From: patent US8962608B2
